ASSAY PROCEDURE: In vitro biological half-life was measured in human plasma
Type: ADME
MEASUREMENT LABEL: half-life (min)

Here's what some known entries look like.
Query: Entry Cc1c(NC(=O)c2ccccn2)ccc2nc(N[C@H](C)c3ccccc3)oc(=O)c12 has what half-life?
Response: 31

Query: Entry Cc1c(NC(=O)CN2CCCC2)ccc2nc(N[C@H](C)c3ccccc3)oc(=O)c12 has what half-life?
Response: 32

1 = Cc1c(N(C)C)ccc2nc(N[C@H](C)c3ccccc3)oc(=O)c12
2 = Cc1c(NC(=O)CN(C)C)ccc2nc(N[C@H](C)c3ccccc3)oc(=O)c12
Query: Input pair: 1 , 2 . Output: entry with lower half-life. Lab note: record the label of whichever item you select.
Response: 2
(2: 32 min, 1: 127 min)

P = Cc1c(NC(=O)OC(C)(C)C)ccc2nc(N[C@H](C)c3ccccc3)oc(=O)c12
Q = Cc1cccc2nc(NC(C)C)oc(=O)c12
R = Cc1cccc2nc(N[C@@H](C)c3ccccc3)oc(=O)c12
Query: hey, can you rank those compounds up there by half-life? biggest number first please Enter labels, ranked according to the request.
Response: Q, R, P
